- Test system: OVCAR-8
- Assay overview: Antiproliferative activity against human OVCAR8 cells after 72 hrs by MTT assay
- Assay type: functional, cell-based
- Conditions used: OVCAR-8, 72 h
pIC50: −log10 of the molar value.
Outcome measure: pIC50

- CCOC(=O)/C(C#N)=C/c1c2ccccc2nc2ccccc12: 4.63

1 = Cc1ccc(CN2C(=O)S/C(=C\c3c4ccccc4nc4ccccc34)C2=O)cc1
2 = O=C1S/C(=C\c2c3ccccc3nc3ccccc23)C(=O)N1Cc1ccc(Cl)cc1
3 = O=C1SC(=Cc2c3ccccc3nc3ccccc23)C(=O)N1Cc1ccc(F)cc1 (mixture of isomers)
4 = COc1cc(NS(C)(=O)=O)ccc1Nc1c2ccccc2nc2ccccc12
5 = O=C1SC(=Cc2c3ccccc3nc3ccccc23)C(=O)N1Cc1ccc(Br)cc1 (mixture of isomers)
Returns the items ordered by pIC50, from maximum to minimum. I would appreciate it if you listed the labels in the requested order.
4, 2, 3, 1, 5

---

- Test system: V79
- Assay overview: Selectivity ratio of IC50 for chinese hamster V79 cells to IC50 for human SF295 cells
// reported Ratio IC50 for each item listed
Please reply with the value in numeric form only.

Example entries begin here.
* O=C1SC(=Cc2c3ccccc3nc3ccccc23)C(=O)N1Cc1ccc(Br)cc1 (mixture of isomers) | 3.1
* O=C1SC(=Cc2c3ccccc3nc3ccccc23)C(=O)N1Cc1ccc(F)cc1 (mixture of isomers) | 5.9
* O=C1S/C(=C\c2c3ccccc3nc3ccccc23)C(=O)N1Cc1ccc(Cl)cc1 | 3.1

Ratio IC50 recorded for this compound, Cc1ccc(CN2C(=O)S/C(=C\c3c4ccccc4nc4ccccc34)C2=O)cc1 , is 3.7

---

- System: HCT-15
- Assay overview: Antiproliferative activity against human HCT15 cells after 72 hrs by MTT assay
- Type: functional, cell-based
- Conditions used: HCT-15, 72 h
Outcome measure: IC50 (µM)

• Cc1ccc(CN2C(=O)S/C(=C\c3c4ccccc4nc4ccccc34)C2=O)cc1 = 29.2

1 = O=C1SC(=Cc2c3ccccc3nc3ccccc23)C(=O)N1Cc1ccc(F)cc1 (mixture of isomers)
2 = O=C1S/C(=C\c2c3ccccc3nc3ccccc23)C(=O)N1Cc1ccc(Cl)cc1
3 = COc1cc(NS(C)(=O)=O)ccc1Nc1c2ccccc2nc2ccccc12
Returns the items ordered by IC50, from maximum to minimum. I would appreciate it if you listed the labels in the requested order.
1, 2, 3

---

- Assay overview: Haemolysis in mouse erythrocytes at 200 ug/mL after 30 mins by spectrophotometry
- Assay type: ADME, cell-based
- Conditions used: erythrocyte, 0.5 h
Outcome measure: Activity

* O=C1SC(=Cc2c3ccccc3nc3ccccc23)C(=O)N1Cc1ccc(Br)cc1 (mixture of isomers) | Non-toxic
* O=C1SC(=Cc2c3ccccc3nc3ccccc23)C(=O)N1Cc1ccc(F)cc1 (mixture of isomers) | Non-toxic
* CCOC(=O)/C(C#N)=C/c1c2ccccc2nc2ccccc12 | Non-toxic
* Cc1ccc(CN2C(=O)S/C(=C\c3c4ccccc4nc4ccccc34)C2=O)cc1 | Non-toxic

Activity recorded for this compound, O=C1S/C(=C\c2c3ccccc3nc3ccccc23)C(=O)N1Cc1ccc(Cl)cc1 , is Non-toxic

---

// reported pIC50 for each item listed
- System: SF-295
- Assay overview: Antiproliferative activity against human SF295 cells after 72 hrs by MTT assay
- Assay type: functional, cell-based
- Conditions used: SF-295, 72 h
Reminder that pIC50 means the negative base-10 logarithm of the concentration expressed in mol/L.

• CCOC(=O)/C(C#N)=C/c1c2ccccc2nc2ccccc12 = 4.26

pIC50 recorded for this compound, O=C1S/C(=C\c2c3ccccc3nc3ccccc23)C(=O)N1Cc1ccc(Cl)cc1 , is 5.24

pIC50 recorded for this compound, COc1cc(NS(C)(=O)=O)ccc1Nc1c2ccccc2nc2ccccc12 [AMSACRINE] , is 6.30

pIC50 recorded for this compound, Cc1ccc(CN2C(=O)S/C(=C\c3c4ccccc4nc4ccccc34)C2=O)cc1 , is 5.11

pIC50 recorded for this compound, O=C1SC(=Cc2c3ccccc3nc3ccccc23)C(=O)N1Cc1ccc(F)cc1 (mixture of isomers) , is 5.25

pIC50 recorded for this compound, O=C1SC(=Cc2c3ccccc3nc3ccccc23)C(=O)N1Cc1ccc(Br)cc1 (mixture of isomers) , is 5.14
